tested on: FU-OV-1 (Ovarian Carcinoma); test: Bliss excess, mean over the matrix (fraction); higher = more synergy;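 further: after 72 h of two-drug dosing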
ENDPOINT_NAME: Bliss excess
Format: numeric value only, no unit, no commentary.

Below are worked cases with known answers.
{"COMPOUND": "Cc1c2c(nn1C)CSCc1cc(n(C)n1)CSc1cc(c3ccccc3c1)OCCCc1c(C(=O)O)n(C)c3c-2c(Cl)ccc13 [AZD5991] + CS(=O)(=O)CCNCc1ccc(-c2ccc3ncnc(Nc4ccc(OCc5cccc(F)c5)c(Cl)c4)c3c2)o1 [Lapatinib] (first compound max 1 µM, 7x7, partner max 10 µM)", "Bliss excess": -0.0179}
{"COMPOUND": "COc1nnc2ccc(N3CCC(c4ccc(OCCN5CCN(C)C(=O)[C@H]5C)cc4)CC3)nn12 [AZD5153] + CCN(CCO)CCCOc1ccc2c(Nc3cc(CC(=O)Nc4cccc(F)c4)[nH]n3)ncnc2c1 [AZD2811] (first compound max 1 µM, 7x7, partner max 1 µM)", "Bliss excess": -0.0571}

Next compound, Bliss excess to be filled in.
Data point: CC1(C)CCC(CN2CCN(c3ccc(C(=O)NS(=O)(=O)c4ccc(NCC5CCOCC5)c([N+](=O)[O-])c4)c(Oc4cnc5[nH]ccc5c4)c3)CC2)=C(c2ccc(Cl)cc2)C1 [Venetoclax] + C[C@@H](Nc1cc(F)cc(F)c1)c1cc(C(=O)N(C)C)cc2c(=O)cc(N3CCOCC3)oc12 [AZD8186] (first compound max 1 µM, 7x7, partner max 3 µM) ; Bliss excess = -0.0594
